Molecular target: von Hippel-Lindau disease tumor suppressor/SWI/SNF-related matrix-associated actin-dependent regulator of chromatin subfamily A member 2 (Homo sapiens, UniProt P51531+P40337)
Sequence (P40337 whole entry, looked up): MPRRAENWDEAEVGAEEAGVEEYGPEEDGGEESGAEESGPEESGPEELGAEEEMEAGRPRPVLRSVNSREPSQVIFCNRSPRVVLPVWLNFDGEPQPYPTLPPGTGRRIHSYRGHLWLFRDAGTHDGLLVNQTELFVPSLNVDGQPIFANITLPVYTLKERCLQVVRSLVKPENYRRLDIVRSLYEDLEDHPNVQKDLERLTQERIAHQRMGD
Sequence (P51531 whole entry, looked up): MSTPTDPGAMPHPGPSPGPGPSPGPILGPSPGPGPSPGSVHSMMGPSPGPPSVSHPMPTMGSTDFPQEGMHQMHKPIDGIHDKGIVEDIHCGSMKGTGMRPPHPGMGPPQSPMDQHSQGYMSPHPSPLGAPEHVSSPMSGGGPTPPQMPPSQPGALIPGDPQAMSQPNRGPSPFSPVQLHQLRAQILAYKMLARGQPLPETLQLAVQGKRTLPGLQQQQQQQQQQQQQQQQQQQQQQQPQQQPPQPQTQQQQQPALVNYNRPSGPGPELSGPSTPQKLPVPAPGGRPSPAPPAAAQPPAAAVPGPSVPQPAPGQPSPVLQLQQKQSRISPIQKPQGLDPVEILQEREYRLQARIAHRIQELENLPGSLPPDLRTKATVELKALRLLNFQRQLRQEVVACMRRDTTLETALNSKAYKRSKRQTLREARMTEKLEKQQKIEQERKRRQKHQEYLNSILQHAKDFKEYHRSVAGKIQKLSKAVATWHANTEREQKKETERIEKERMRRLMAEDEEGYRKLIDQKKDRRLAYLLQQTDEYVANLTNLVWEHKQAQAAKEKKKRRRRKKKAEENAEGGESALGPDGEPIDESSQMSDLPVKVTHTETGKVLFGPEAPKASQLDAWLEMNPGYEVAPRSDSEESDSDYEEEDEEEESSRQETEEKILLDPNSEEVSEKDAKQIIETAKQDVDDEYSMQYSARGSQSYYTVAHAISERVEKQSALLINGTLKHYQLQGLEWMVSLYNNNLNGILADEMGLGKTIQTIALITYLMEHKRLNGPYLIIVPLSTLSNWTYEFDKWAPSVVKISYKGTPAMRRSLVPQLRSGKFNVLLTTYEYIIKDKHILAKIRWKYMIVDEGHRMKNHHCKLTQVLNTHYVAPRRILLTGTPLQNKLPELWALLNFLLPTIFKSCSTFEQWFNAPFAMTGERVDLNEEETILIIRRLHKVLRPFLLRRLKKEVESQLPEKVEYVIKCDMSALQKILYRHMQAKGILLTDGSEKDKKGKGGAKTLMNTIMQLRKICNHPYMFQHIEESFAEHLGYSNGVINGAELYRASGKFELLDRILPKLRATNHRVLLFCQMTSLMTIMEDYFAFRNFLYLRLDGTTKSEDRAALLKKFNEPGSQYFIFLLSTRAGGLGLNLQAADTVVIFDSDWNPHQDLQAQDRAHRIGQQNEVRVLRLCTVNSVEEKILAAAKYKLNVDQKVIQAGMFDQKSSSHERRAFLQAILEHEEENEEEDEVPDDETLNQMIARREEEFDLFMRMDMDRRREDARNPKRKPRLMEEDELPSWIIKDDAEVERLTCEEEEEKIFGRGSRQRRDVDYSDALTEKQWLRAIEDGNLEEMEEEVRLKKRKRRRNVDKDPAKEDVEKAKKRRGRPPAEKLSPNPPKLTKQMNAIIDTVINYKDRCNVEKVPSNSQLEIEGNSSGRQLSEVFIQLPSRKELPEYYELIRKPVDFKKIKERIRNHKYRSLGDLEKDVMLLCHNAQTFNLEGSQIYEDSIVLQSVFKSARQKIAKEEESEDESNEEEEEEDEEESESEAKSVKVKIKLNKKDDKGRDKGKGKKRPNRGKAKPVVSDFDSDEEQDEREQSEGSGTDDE
Assay: PROTAC activity at VHL1/SMARCA2 in human genetically modified Hela cells assessed as maximal degradation measured after 24 hrs incubation by Nano-Glo HiBiT Lytic Detection Assay relative to control
Format: cell-based
MEASURED ENDPOINT: Emax (%)
Answers are plain numbers, in %.

As a guide, the following entries are already answered.
{"columns": ["SMILES STR", "Emax [%]"],
 "data": [
  ["Cc1ncsc1-c1ccc([C@H](C)NC(=O)[C@@H]2C[C@@H](O)CN2C(=O)[C@@H](c2cc(N3CCC(CN4CCC(O[C@H]5C[C@H](Oc6cc(CN7C8CCC7CN(c7cc(-c9ccccc9O)nnc7N)C8)ccn6)C5)CC4)CC3)no2)C(C)C)cc1", 97],
  ["Cc1ncsc1-c1ccc([C@H](C)NC(=O)[C@@H]2C[C@@H](O)CN2C(=O)[C@@H](NC(=O)[C@H]2CC[C@H](CN3CCC(c4ccc5c(c4)C4(CCCCC4)c4nc(=O)c6c(Cl)cccc6n4-5)CC3)CC2)C(C)(C)C)cc1", 92],
  ["Cc1ncsc1-c1ccc([C@H](CC[C@H](C)CCN2CCC(c3ccc4c(c3)n(C3CCCC3)c3nc(=O)c5c(Br)cccc5n43)CC2)NC(=O)[C@@H]2C[C@@H](O)CN2C(=O)[C@@H](NC(=O)C2(F)CC2)C(C)(C)C)cc1", 93]
]}

With those in mind, consider the next compound.
The reported Emax of the compound Cc1ncsc1-c1ccc([C@H](CCCCCN2CCC(c3ccc4c(c3)-n3c(nc(=O)c5c(Br)cccc53)C43CCCCC3)CC2)NC(=O)[C@@H]2C[C@@H](O)CN2C(=O)[C@@H](NC(=O)C2(F)CC2)C(C)(C)C)cc1 was 95

Sourced from ChEMBL document CHEMBL6153041
